tested on: Macaca fascicularis; assay: Volume of distribution at steady state in monkey at 5 mg/kg, iv; details: cynomolgus monkey, in vivo, read-out: Vss

{"molecule": "C[C@@H](O)[C@H]1C(=O)N2C(C(=O)O)=C(S[C@H]3C[C@@H](C(=O)N4CC[C@H](NC(=O)CNC(=N)N)C4)N(C)C3)[C@H](C)[C@H]12 [TOMOPENEM]", "Vd [L/kg]": 0.176}

----------
assay: Protein binding in dog serum at 20 ug/ml; type: ADME, cell-free, Canis lupus familiaris; conditions: read-out: PPB
observed_property: fraction unbound at 20 ug/ml

{"smiles_code": "C[C@@H](O)[C@H]1C(=O)N2C(C(=O)O)=C(S[C@H]3C[C@@H](C(=O)N4CC[C@H](NC(=O)CNC(=N)N)C4)N(C)C3)[C@H](C)[C@H]12", "numeric_value": 0.91}

----------
system: Macaca fascicularis; assay: AUC (0-inf) in monkey at 5 mg/kg, iv; settings: cynomolgus monkey, plasma
observed_property: AUC(0-inf) (ng·h/mL)

{"smiles_code": "C[C@@H](O)[C@H]1C(=O)N2C(C(=O)O)=C(S[C@H]3C[C@@H](C(=O)N4CC[C@H](NC(=O)CNC(=N)N)C4)N(C)C3)[C@H](C)[C@H]12", "quantity_unit": "ng·h/mL", "numeric_value": 48600}

----------
system: Macaca fascicularis; test: Clearance in monkey at 25 mg/kg, iv; settings: cynomolgus monkey, in vivo

{"molecule": "C[C@@H](O)[C@H]1C(=O)N2C(C(=O)O)=C(S[C@H]3C[C@@H](C(=O)N4CC[C@H](NC(=O)CNC(=N)N)C4)N(C)C3)[C@H](C)[C@H]12 [TOMOPENEM]", "clearance [mL/min/kg]": 1.73}

----------
assay: Volume of distribution at steady state in dog at 10 mg/kg, iv; type: ADME, organism-based, Canis lupus familiaris; set-up: dose 10 mg/kg, route intravenous; conditions: in vivo, read-out: Vss

{"compound": "C[C@@H](O)[C@H]1C(=O)N2C(C(=O)O)=C(S[C@H]3C[C@@H](C(=O)N4CC[C@H](NC(=O)CNC(=N)N)C4)N(C)C3)[C@H](C)[C@H]12 [TOMOPENEM]", "Vd": "0.259 L/kg"}

----------
test system: Macaca fascicularis; assay: Clearance in monkey at 10 mg/kg, iv; conditions: cynomolgus monkey, in vivo

{"molecule": "C[C@@H](O)[C@H]1C(=O)N2C(C(=O)O)=C(S[C@H]3C[C@@H](C(=O)N4CC[C@H](NC(=O)CNC(=N)N)C4)N(C)C3)[C@H](C)[C@H]12 [TOMOPENEM]", "clearance": "1.62 mL/min/kg"}

----------
experiment: Clearance in dog at 25 mg/kg, iv; assay type: ADME, organism-based, Canis lupus familiaris; design: dose 25 mg/kg, route intravenous; settings: in vivo

{"smiles_code": "C[C@@H](O)[C@H]1C(=O)N2C(C(=O)O)=C(S[C@H]3C[C@@H](C(=O)N4CC[C@H](NC(=O)CNC(=N)N)C4)N(C)C3)[C@H](C)[C@H]12", "clearance [mL/min/kg]": 3.26}

----------
assay: Clearance in dog at 10 mg/kg, iv; type: ADME, organism-based, Canis lupus familiaris; parameters: dose 10 mg/kg, route intravenous; settings: in vivo
observed_property: clearance (mL/min/kg)

{"compound": "C[C@@H](O)[C@H]1C(=O)N2C(C(=O)O)=C(S[C@H]3C[C@@H](C(=O)N4CC[C@H](NC(=O)CNC(=N)N)C4)N(C)C3)[C@H](C)[C@H]12 [TOMOPENEM]", "observed_property": "clearance", "quantity_unit": "mL/min/kg", "numeric_value": 4.19}

----------
experiment: Clearance in dog at 5 mg/kg, iv; assay type: ADME, organism-based, Canis lupus familiaris; design: dose 5 mg/kg, route intravenous; conditions: in vivo

{"compound": "C[C@@H](O)[C@H]1C(=O)N2C(C(=O)O)=C(S[C@H]3C[C@@H](C(=O)N4CC[C@H](NC(=O)CNC(=N)N)C4)N(C)C3)[C@H](C)[C@H]12 [TOMOPENEM]", "clearance [mL/min/kg]": 4.44}

----------
experiment: Half life in rat at 10 mg/kg, iv; type: ADME, organism-based; parameters: dose 10 mg/kg, route intravenous; details: in vivo

{"smiles_code": "C[C@@H](O)[C@H]1C(=O)N2C(C(=O)O)=C(S[C@H]3C[C@@H](C(=O)N4CC[C@H](NC(=O)CNC(=N)N)C4)N(C)C3)[C@H](C)[C@H]12", "half-life": "9.6 min"}

----------
test: Clearance in rat at 10 mg/kg, iv; type: ADME, organism-based; set-up: dose 10 mg/kg, route intravenous; settings: in vivo

{"smiles_code": "C[C@@H](O)[C@H]1C(=O)N2C(C(=O)O)=C(S[C@H]3C[C@@H](C(=O)N4CC[C@H](NC(=O)CNC(=N)N)C4)N(C)C3)[C@H](C)[C@H]12", "quantity_unit": "mL/min/kg", "clearance": 16.9}

----------
species: Macaca fascicularis; assay: Protein binding in monkey serum at 20 ug/ml; settings: cynomolgus monkey, read-out: PPB (converted)
observed_property: fraction unbound at 20 ug/ml

{"molecule": "C[C@@H](O)[C@H]1C(=O)N2C(C(=O)O)=C(S[C@H]3C[C@@H](C(=O)N4CC[C@H](NC(=O)CNC(=N)N)C4)N(C)C3)[C@H](C)[C@H]12 [TOMOPENEM]", "observed_property": "fraction unbound at 20 ug/ml", "numeric_value": 0.844}

----------
assay: Half life in dog at 5 mg/kg, iv; type: ADME, organism-based, Canis lupus familiaris; parameters: dose 5 mg/kg, route intravenous; conditions: in vivo

{"compound": "C[C@@H](O)[C@H]1C(=O)N2C(C(=O)O)=C(S[C@H]3C[C@@H](C(=O)N4CC[C@H](NC(=O)CNC(=N)N)C4)N(C)C3)[C@H](C)[C@H]12 [TOMOPENEM]", "half-life": "45 min"}

----------
assay: Volume of distribution at steady state in rat at 10 mg/kg, iv; format: ADME, organism-based; set-up: dose 10 mg/kg, route intravenous; details: in vivo, read-out: Vss
observed_property: Vd (L/kg)

{"smiles_code": "C[C@@H](O)[C@H]1C(=O)N2C(C(=O)O)=C(S[C@H]3C[C@@H](C(=O)N4CC[C@H](NC(=O)CNC(=N)N)C4)N(C)C3)[C@H](C)[C@H]12", "numeric_value": 0.199}
